Target: UniProt:A0A3A5LBF0
Sequence (A0A3A5LBF0 1-323): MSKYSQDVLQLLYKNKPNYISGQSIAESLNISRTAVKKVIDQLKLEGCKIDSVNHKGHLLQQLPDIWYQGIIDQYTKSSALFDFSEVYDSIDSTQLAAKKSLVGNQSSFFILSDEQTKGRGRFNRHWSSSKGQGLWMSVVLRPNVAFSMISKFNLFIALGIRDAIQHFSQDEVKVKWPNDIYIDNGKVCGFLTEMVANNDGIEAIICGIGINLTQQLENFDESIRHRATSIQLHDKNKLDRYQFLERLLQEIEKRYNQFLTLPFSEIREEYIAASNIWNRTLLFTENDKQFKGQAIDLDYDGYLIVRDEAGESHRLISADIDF
Assay: In vitro biotinylation assay of S. aureus BPL
Assay type: biochemical
reported.property: pIC50
// field semantics: pIC50 = negative decimal log of concentration (mol/L)

Enquiry: # query: pIC50 | item C=CCC(Cc1cc(OC)cc(OC)c1)(C(=O)O)C(=O)O | system: UniProt:A0A3A5LBF0
Return: 5.57
